molecular target: human V2 receptor (Homo sapiens, UniProt P30518); construct: expressed in transfected cells; host or cells: CHO K1 (ATCC) expressing firefly luciferase under a CRE-responsive promoter; assay: Cellular in vitro assay for determining vasopressin receptor activity, V2 receptor cell line (CHO, CRE-luciferase); type: cell-based; conditions: CHO cell line transfected with human V2 receptor; [Arg8]-vasopressin at EC50 concentration; read-out: IC50 hV2
Sequence (P30518 whole entry): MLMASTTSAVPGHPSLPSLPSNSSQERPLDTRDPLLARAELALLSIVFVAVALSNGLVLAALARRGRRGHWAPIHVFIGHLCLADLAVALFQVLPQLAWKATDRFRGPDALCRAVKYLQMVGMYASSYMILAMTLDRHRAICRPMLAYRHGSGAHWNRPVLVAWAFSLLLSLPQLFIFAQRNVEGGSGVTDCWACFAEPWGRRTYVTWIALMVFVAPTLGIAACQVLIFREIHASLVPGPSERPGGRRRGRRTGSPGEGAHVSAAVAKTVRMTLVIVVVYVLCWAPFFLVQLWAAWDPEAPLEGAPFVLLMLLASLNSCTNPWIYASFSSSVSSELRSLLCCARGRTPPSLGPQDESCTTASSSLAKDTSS
readout-name: IC50 (µM)

[
  {
    "compound": "O=C(c1cccc(Cl)c1-n1cnc(Cn2nc(-c3ccc(Cl)cc3)n(C[C@@H](O)C(F)(F)F)c2=O)n1)N1CCCCC1",
    "readout-name": "IC50",
    "unit-of-measure": "µM",
    "observed-value": 9.95
  },
  {
    "compound": "O=C(c1ncccc1-n1cnc(Cn2nc(-c3ccc(Cl)cc3)n(C[C@@H](O)C(F)(F)F)c2=O)n1)N1CCC(C(F)(F)F)C1 (mixture of isomers)",
    "readout-name": "IC50",
    "unit-of-measure": "µM",
    "observed-value": 32
  }
]

(I) O=C(N[C@H]1C[C@@H]1F)c1cccc(C(F)(F)F)c1-n1cnc(Cn2nc(-c3ccc(Cl)cc3)n(C[C@H](O)C(F)(F)F)c2=O)n1 (racemic)
(II) NC(CNC(=O)c1cccc(Cl)c1-n1cnc(Cn2nc(-c3ccc(Cl)cc3)n(C[C@@H](O)C(F)(F)F)c2=O)n1)C(F)(F)F (mixture of isomers)
(III) CN(CC1CC1)C(=O)c1ncccc1-n1cnc(Cn2nc(-c3ccc(Cl)cc3)n(C[C@H](O)C(F)(F)F)c2=O)n1
Req: Sort the 3 compounds by IC50; largest first, smallest last. Would you mind listing the labels in the order requested?
Resp: II, III, I
(II: 8.5 µM, III: 4.05 µM, I: 2.8 µM)

(1) O=C(NC1CC1)c1ccncc1-n1cnc(Cn2nc(-c3ccc(Cl)cc3)n(C[C@H](O)C(F)(F)F)c2=O)n1
(2) O=C(NC1(C(F)(F)F)CC1)c1cccc(Cl)c1-n1cnc(Cn2nc(-c3ccc(Cl)cc3)n(C[C@@H](O)C(F)(F)F)c2=O)n1
(3) O=C(c1ncccc1-n1cnc(Cn2nc(-c3ccc(Cl)cc3)n(C[C@@H](O)C(F)(F)F)c2=O)n1)N1CCOCC1
(4) O=C(NCCC(F)(F)F)c1cccnc1-n1cnc(Cn2nc(-c3ccc(Cl)cc3)n(C[C@H](O)C(F)(F)F)c2=O)n1
(5) O=C(c1ncccc1-n1cnc(Cn2nc(-c3ccc(Cl)cc3)n(C[C@@H](O)C(F)(F)F)c2=O)n1)N1CCCCC1
Req: # ascending order, key=IC50 I'd appreciate it if you listed the labels in the requested order.
Resp: 4, 1, 2, 5, 3

---

Target: human V2 receptor (Homo sapiens)
Construct: expressed in transfected cells; host or cells: CHO K1 (ATCC) expressing firefly luciferase under a CRE-responsive promoter
Experiment: Cellular in vitro assay for determining vasopressin receptor activity, V2 receptor cell line (CHO, CRE-luciferase)
Type: cell-based
Conditions: CHO cell line transfected with human V2 receptor; [Arg8]-vasopressin at EC50 concentration, 3 hours; read-out: IC50 hV2
Procedure: B-1. Cellular In Vitro Assay for Determining Vasopressin Receptor Activity The identification of agonists and antagonists of the V1a and V2 vasopressin receptors from humans, rats and dogs as well as the quantification of the activity of the compounds of the invention is carried out using recombinant cell lines. […] The bioluminescence of the cell lines is detected using a suitable luminometer [Milligan G, Marshall F, Rees S, Trends in Pharmacological Sciences 17, 235-237 (1996)]. […]
readout-name: IC50 (nM)

[
  {
    "molecule": "CC(C)N(C(=O)c1ccccc1-n1cnc(Cn2nc(-c3ccc(Cl)cc3)n(C[C@H](O)C(F)(F)F)c2=O)n1)C(C)C",
    "target": "human V2 receptor (Homo sapiens)",
    "unit-of-measure": "nM",
    "observed-value": 1650
  }
]

(1) CC1COCCN1C(=O)c1ccccc1-n1cnc(Cn2nc(-c3ccc(Cl)cc3)n(C[C@H](O)C(F)(F)F)c2=O)n1 (mixture of isomers)
(2) O=C(Nc1cccnc1-n1cnc(Cn2nc(-c3ccc(Cl)cc3)n(C[C@H](O)C(F)(F)F)c2=O)n1)C1CC1F (single isomer, unassigned) [Example 56]
Req: Just tell me: smaller IC50 value, 1 or 2 ? Please respond with the label that marks your chosen entry.
Resp: 2

---

biological target: human V1a receptor (Homo sapiens); assay: Cellular in vitro assay for determining vasopressin receptor activity, V1a receptor cell line (CHO, aequorin luminescence); conditions: CHO cell line transfected with human V1a receptor; [Arg]-vasopressin at EC50 concentration; read-out: IC50 hV1a
Sequence (P37288 whole entry): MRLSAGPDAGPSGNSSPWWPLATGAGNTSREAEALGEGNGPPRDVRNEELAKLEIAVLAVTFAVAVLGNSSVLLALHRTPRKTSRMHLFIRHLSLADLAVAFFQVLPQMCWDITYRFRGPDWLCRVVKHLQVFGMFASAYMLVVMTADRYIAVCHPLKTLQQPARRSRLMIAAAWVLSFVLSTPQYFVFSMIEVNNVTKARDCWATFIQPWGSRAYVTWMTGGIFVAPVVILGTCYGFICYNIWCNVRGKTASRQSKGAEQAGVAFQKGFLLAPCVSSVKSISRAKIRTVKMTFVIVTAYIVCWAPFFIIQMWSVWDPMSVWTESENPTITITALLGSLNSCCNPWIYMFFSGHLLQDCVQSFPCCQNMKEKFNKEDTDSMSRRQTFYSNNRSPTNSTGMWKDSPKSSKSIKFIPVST
readout-name: IC50 (nM)

# annotated cases, reported IC50 shown
[
  {
    "compound": "O=C(NCCC(F)(F)F)c1ccccc1-n1cnc(Cn2nc(-c3ccc(Cl)cc3)n(C[C@H](O)C(F)(F)F)c2=O)n1 [Example 182]",
    "observed-value": 24
  },
  {
    "compound": "O=C(N[C@H]1C[C@H]1F)c1ccncc1-n1nc(Cn2nc(-c3ccc(Cl)cc3)n(C[C@H](O)C(F)(F)F)c2=O)nc1C(=O)N1CCS(=O)(=O)CC1 (racemic) [Example 523]",
    "observed-value": 365
  },
  {
    "compound": "O=C(N[C@H]1C[C@H]1F)c1cccnc1-n1nc(Cn2nc(-c3ccc(Cl)cc3)n(C[C@H](O)C(F)(F)F)c2=O)nc1C(=O)N1CCS(=O)(=O)CC1 (racemic) [Example 533]",
    "observed-value": 146
  },
  {
    "compound": "CC1(NC(=O)c2cccc(Cl)c2-n2cnc(Cn3nc(-c4ccc(Cl)cc4)n(C[C@@H](O)C(F)(F)F)c3=O)n2)CC1 [Example 405]",
    "observed-value": 16.5
  }
]

(A) CC(C)CC(=O)Nc1ncccc1-n1cnc(Cn2nc(-c3ccc(Cl)cc3)n(C[C@H](O)C(F)(F)F)c2=O)n1 [Example 148]
(B) O=C(NC1CC1F)c1ncccc1-n1cnc(Cn2nc(-c3ccc(Cl)cc3)n(C[C@@H](O)C(F)(F)F)c2=O)n1 (some centres unmarked) [Example 462]
(C) Cc1cc(NC(=O)c2ccccc2-n2cnc(Cn3nc(-c4ccc(Cl)cc4)n(C[C@H](O)C(F)(F)F)c3=O)n2)n(C)n1 [Example 213]
(D) CC[C@@H](C)C(=O)Nc1ncccc1-n1cnc(Cn2nc(-c3ccc(Cl)cc3)n(C[C@H](O)C(F)(F)F)c2=O)n1 [Example 126]
(E) O=C(NCc1ccncc1)c1ccccc1-n1cnc(Cn2nc(-c3ccc(Cl)cc3)n(C[C@H](O)C(F)(F)F)c2=O)n1 [Example 302]
Req: Rank ascending by IC50. Could you list the labels in the order requested?
Resp: E, C, A, D, B

---

Target: human V2 receptor (Homo sapiens)
Construct: expressed in transfected cells; host or cells: CHO K1 (ATCC) expressing firefly luciferase under a CRE-responsive promoter
Assay: Cellular in vitro assay for determining vasopressin receptor activity, V2 receptor cell line (CHO, CRE-luciferase)
Type: cell-based
Details: CHO cell line transfected with human V2 receptor; [Arg8]-vasopressin at EC50 concentration, 3 hours; read-out: IC50 hV2
Experimental: B-1. Cellular In Vitro Assay for Determining Vasopressin Receptor Activity The identification of agonists and antagonists of the V1a and V2 vasopressin receptors from humans, rats and dogs as well as the quantification of the activity of the compounds of the invention is carried out using recombinant cell lines. […] The bioluminescence of the cell lines is detected using a suitable luminometer [Milligan G, Marshall F, Rees S, Trends in Pharmacological Sciences 17, 235-237 (1996)]. […]
pIC50: −log10 of the molar value.
readout-name: pIC50

Previously resolved entries follow.
[
  {
    "compound": "Cc1ccc(NC(=O)c2ccccc2-n2cnc(Cn3nc(-c4ccc(Cl)cc4)n(C[C@H](O)C(F)(F)F)c3=O)n2)c(F)c1",
    "pIC50": 6.93
  },
  {
    "compound": "CC(C)C(C)NC(=O)c1ccccc1-n1cnc(Cn2nc(-c3ccc(Cl)cc3)n(C[C@H](O)C(F)(F)F)c2=O)n1 (mixture of isomers)",
    "pIC50": 6.92
  }
]

(I) O=C(NC1CCCC1)c1ccccc1-n1cnc(Cn2nc(-c3ccc(Cl)cc3)n(C[C@H](O)C(F)(F)F)c2=O)n1
(II) Cc1ncccc1NC(=O)c1ccccc1-n1cnc(Cn2nc(-c3ccc(Cl)cc3)n(C[C@H](O)C(F)(F)F)c2=O)n1
Req: Hi, I'm comparing two records. Which one has the lower pIC50, I or II ? # answer = label of selected item
Resp: II

---

target: human V1a receptor (Homo sapiens); construct: expressed in transfected cells; host or cells: CHO K1 (ATCC), also stably transfected with a modified aequorin; test: Cellular in vitro assay for determining vasopressin receptor activity, V1a receptor cell line (CHO, aequorin luminescence); format: cell-based; settings: selectivity ratio IC50 hV2 / IC50 hV1a
readout-name: ratio IC50 hV2/hV1a

Some solved cases for reference:
[
  {
    "molecule": "O=C(Nc1ncccc1-n1cnc(Cn2nc(-c3ccc(Cl)cc3)n(C[C@H](O)C(F)(F)F)c2=O)n1)C1CCCCO1 (stereo partly shown)",
    "readout-name": "ratio IC50 hV2/hV1a",
    "observed-value": 51.3
  },
  {
    "molecule": "CC1(C)CCCN(C(=O)c2ccccc2-n2cnc(Cn3nc(-c4ccc(Cl)cc4)n(C[C@H](O)C(F)(F)F)c3=O)n2)C1",
    "readout-name": "ratio IC50 hV2/hV1a",
    "observed-value": 112.5
  },
  {
    "molecule": "CC1(NC(=O)c2ccncc2-n2nc(Cn3nc(-c4ccc(Cl)cc4)n(C[C@H](O)C(F)(F)F)c3=O)nc2C(=O)N2CCS(=O)(=O)CC2)CC1",
    "readout-name": "ratio IC50 hV2/hV1a",
    "observed-value": 0.1
  },
  {
    "molecule": "O=C(Nc1ncccc1-n1cnc(Cn2nc(-c3ccc(Cl)cc3)n(C[C@H](O)C(F)(F)F)c2=O)n1)c1ccc(F)cc1",
    "readout-name": "ratio IC50 hV2/hV1a",
    "observed-value": 28.8
  },
  {
    "molecule": "O=C(N[C@@H]1C[C@@H]1F)c1ccncc1-n1cnc(Cn2nc(-c3ccc(Cl)cc3)n(C[C@H](O)C(F)(F)F)c2=O)n1",
    "readout-name": "ratio IC50 hV2/hV1a",
    "observed-value": 23.8
  }
]

(A) O=C(Nc1ncccc1-n1cnc(Cn2nc(-c3ccc(Cl)cc3)n(C[C@H](O)C(F)(F)F)c2=O)n1)C1CC1F (single isomer, unassigned) [Example 86]
(B) NC(=O)CCNc1ccncc1-n1cnc(Cn2nc(-c3ccc(Cl)cc3)n(C[C@H](O)C(F)(F)F)c2=O)n1
Req: Record comparison, field ratio IC50 hV2/hV1a: mark the lower of A and B . # respond with the chosen item's label
Resp: B
